This collection of values is drawn from paper PMC6557900.

Target: T1, SOCS2-ElonginB-ElonginC complex, wild-type (human | , UniProt O14508 32-198; Q15370 1-104; Q15369 17-112)
T1 construct: Untagged in ITC and NMR; also called SBC; wild-type SBC; source: E. coli BL21(DE3), co-expressed, purified (HisTrap, TEV cleavage, second HisTrap, SEC Superdex 75); not shown: His6, N-terminal, cleaved; copies: + +
T1 sequence (O14508 32-198, chain 1 of 3): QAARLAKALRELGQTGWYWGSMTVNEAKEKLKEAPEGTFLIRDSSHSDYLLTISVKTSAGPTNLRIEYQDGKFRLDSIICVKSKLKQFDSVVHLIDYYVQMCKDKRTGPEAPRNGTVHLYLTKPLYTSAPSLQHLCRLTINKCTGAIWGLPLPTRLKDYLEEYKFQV
T1 sequence (Q15370 1-104, chain 2 of 3): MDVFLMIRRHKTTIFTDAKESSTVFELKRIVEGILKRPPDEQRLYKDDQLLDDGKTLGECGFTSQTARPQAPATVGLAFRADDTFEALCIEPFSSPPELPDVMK
T1 sequence (Q15369 17-112, chain 3 of 3): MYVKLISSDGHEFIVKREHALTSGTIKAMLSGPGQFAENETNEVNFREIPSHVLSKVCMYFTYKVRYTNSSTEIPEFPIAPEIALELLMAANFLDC
Assay: ITC; peptide (750 or 1500 μM) titrated into SBC (50 μM); 100 mM HEPES pH 7.5, 50 mM NaCl, 0.5 mM TCEP, 298 K; one-set-of-site model
Settings: both partners purified
Where no end group is shown, it is not given here. [ ]: non-standard residue; d: D form. pY = N[C@@H](Cc1ccc(OP(=O)(O)O)cc1)C(=O)O
readout.type: Kd (nM)
Kindly answer with a numeric value in nM, unit omitted.

Ask | Entry under review: NIDF[pY]AQVSDI-NH2 (growth hormone receptor (GHR), 11-residue peptide around pY487; source: synthetic peptide (solid-phase, Fmoc, Rink amide resin), HPLC purified) [GHR_pY487 phosphopeptide (growth hormone receptor)] . Reported Kd?
Reply | 2300
